system: Escherichia coli TOP10; assay: shrunken log2 fold change of peptide-encoding DNA abundance (4.5 h post-induction vs induction); higher = less antimicrobial activity (less host growth inhibition); details: time post-induction: 4.5 h; library: site-saturation at positions 5, 18, 19, 20
We use -0.2 as the dividing line for shrunken log2 fold change: on or above the line is Satisfied, below is Not satisfied.

Dear colleague, could you confirm whether `RRIRMRPPRLPRPRPRPPIGPRP` has shrunken log2 fold change at or above -0.2?
Satisfied

Subsequent entry: `RRIRIRPPRLPRPRPRPCRAPRP`
Not satisfied

---

Recorded shrunken log2 fold change, one value per entry.
test system: Escherichia coli TOP10; assay: shrunken log2 fold change of peptide-encoding DNA abundance (4.5 h post-induction vs induction); higher = less antimicrobial activity (less host growth inhibition); conditions: time post-induction: 4.5 h; library: site-saturation at positions 5, 18, 19, 20
// print number alone

RRIRNRPPRLPRPRPRPWLFPRP
0.0966
RRIRSRPPRLPRPRPRPHKDPRP
-0.534
RRIRRRPPRLPRPRPRPKCGPRP
0.0229
RRIRPRPPRLPRPRPRPQLDPRP
0.314
RRIRARPPRLPRPRPRPKKLPRP
0.223

Entry `RRIRYRPPRLPRPRPRPVSAPRP` : reported shrunken log2 fold change = ?
-0.332

Subsequent entry: `RRIRFRPPRLPRPRPRPQEQPRP`
-0.0102

Subsequent entry: `RRIRGRPPRLPRPRPRPDWDPRP`
0.596

Subsequent entry: `RRIRRRPPRLPRPRPRPCGTPRP`
0.363

Subsequent entry: `RRIRFRPPRLPRPRPRPMSVPRP`
-0.482

---

system: Escherichia coli TOP10; test: shrunken log2 fold change of peptide-encoding DNA abundance (4.5 h post-induction vs induction); higher = less antimicrobial activity (less host growth inhibition); settings: time post-induction: 4.5 h; library: site-saturation at positions 5, 18, 19, 20
PROPERTY: shrunken log2 fold change
// print number alone

# example entries with known answers
RRIRNRPPRLPRPRPRPVDEPRP
0.0158
RRIRLRPPRLPRPRPRPCGQPRP
-0.0417
RRIRIRPPRLPRPRPRPTFHPRP
-0.266
RRIRKRPPRLPRPRPRPHTRPRP
0.29
RRIRWRPPRLPRPRPRPECFPRP
0.671

Entry `RRIRCRPPRLPRPRPRPDSHPRP` : reported shrunken log2 fold change = ?
-0.199

Subsequent entry: `RRIRDRPPRLPRPRPRPVKCPRP`
-0.117

Subsequent entry: `RRIRSRPPRLPRPRPRPMFCPRP`
-0.285

---

system: Escherichia coli TOP10; test: shrunken log2 fold change of peptide-encoding DNA abundance (4.5 h post-induction vs induction); higher = less antimicrobial activity (less host growth inhibition); settings: time post-induction: 4.5 h; library: site-saturation at positions 5, 18, 19, 20;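 further: peptides expressed intracellularly from a pBAD plasmid library in pooled LB shake-flask culture, induced with 0.3% L-arabinose, DNA abundance read by NGS, three biological replicates, DESeq2 with apeglm shrinkage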
We use -0.2 as the dividing line for shrunken log2 fold change: on or above the line is class 1, below is class 0.

Before answering, review these 10 worked examples.
RRIRHRPPRLPRPRPRPHVRPRP
class 1
RRIRHRPPRLPRPRPRPKYSPRP
class 0
RRIRARPPRLPRPRPRPMNNPRP
class 1
RRIRNRPPRLPRPRPRPDAVPRP
class 1
RRIRFRPPRLPRPRPRPGPDPRP
class 1
RRIRMRPPRLPRPRPRPLPHPRP
class 1
RRIRKRPPRLPRPRPRPTVVPRP
class 1
RRIRGRPPRLPRPRPRPWFNPRP
class 1
RRIRGRPPRLPRPRPRPYCNPRP
class 0
RRIRPRPPRLPRPRPRPWPWPRP
class 1

Dear colleague, could you confirm whether `RRIRERPPRLPRPRPRPKQWPRP` has shrunken log2 fold change at or above -0.2?
class 1

Subsequent entry: `RRIRFRPPRLPRPRPRPVCIPRP`
class 0
